Values from PubChem BioAssay (NCI)

Test system: CCRF-CEM leukemia
Assay: NCI-60 one-dose screen, 48 h
Details: 10 µM unless noted
Protocol: Growth inhibition of the CCRF-CEM human tumor cell line is measured as a screen for anti-cancer activity. Cells are grown in 96 well plates and exposed to the test compound for 48 hours. Compounds are tested at a single concentration, which is 10^-5 M for most compounds. The reported endpoint is percent growth (GI% or GIPRCNT), where numbers from 0 - 100% represent growth inhibition, and numbers from -100% - 0 represent cell death. For example, a value of 40 represents 60% growth inhibition. […]
The panel holds about 83,000 compounds, 20% with a hit somewhere; the sample as a whole holds those more often. Calls of active or inactive are those of the source. The calls were made as follows: active = growth percent below 10; inactive = the rest.
# output must be one of active, inactive

COc1ccccc1C(=O)NN1C(=O)/C(=C/C2=Cc3ccccc3OC2)SC1=S ... inactive
COc1cc2c(c(OC)c1OC)C(=O)CC(c1cccc(NC(=O)c3cc(NC(=O)[C@H](C)N)ccc3Cl)c1)O2 (stereo partly drawn) ... inactive
O=C(c1ccc(OCCN2CCOCC2)cc1)C1[C@H](c2ccc(Cl)cc2)[C@@H](c2ccccc2)NC12C(=O)Nc1ccc(Cl)cc12 (stereo partly drawn) ... inactive
Cn1cc(-c2cc3nc(-c4cn(C)c5ncccc45)cc(N)n3n2)c2cc(Cl)ccc21 ... active
COc1ccc(C(=O)/C=C/c2cc3c(cc2Br)OCO3)cc1S(N)(=O)=O ... active

Ask: Outcome? Cc1ccc(Cc2cnc(NC(=O)c3ccc(/C=C4\SC(=S)N(C)C4=O)cc3)s2)cc1
Result: inactive

Ask: Outcome? COc1cc2c(c(OC)c1OC)C(=O)CC(c1cccc(NC(=O)c3cc(N)ccc3Cl)c1)O2 (stereo not drawn)
Result: inactive

Ask: Outcome? CN(C)c1ccnc(CNCCSC2(c3ccc(C(F)(F)F)cc3)c3ccccc3CCc3ccccc32)c1
Result: active

----------
Tested on: 786-0 renal
Test: NCI-60 one-dose screen, 48 h (100 = growth as untreated, 0 = no growth, -100 = all killed)
Conditions: 10 µM unless noted
Experimental: Cells are grown in 96 well plates and exposed to the test compound for 48 hours. Compounds are tested at a single concentration, which is 10^-5 M for most compounds. The reported endpoint is percent growth (GI% or GIPRCNT), where numbers from 0 - 100% represent growth inhibition, and numbers from -100% - 0 represent cell death. For example, a value of 40 represents 60% growth inhibition. A value of 0 means no net growth occurred over the course of the experiment. […]
This is part of a sample that, as a whole, favours compounds with a hit. Of some 83,000 tested, about 20% had one in any assay.
Label MET for high-side growth (at or above 60%) and NOT MET for low-side growth (below it).

Use the examples below as a reference point.
CCOC(=O)C1=C(N)N(c2ccccc2)C2=C(C(=O)CC(C)(C)C2)C1c1ccccc1Cl (centres undefined) ... MET
CCOC(=O)COc1c(OC)c(OC)cc2oc(-c3cccc(C(=O)Nc4ccc(Cl)cc4)c3)cc(=O)c12 ... NOT MET
CN1CCN(c2ccc3c(c2)nc(NNC(=O)c2ncccn2)c2cccn23)CC1 ... NOT MET

Ask: Would you say CN1CCc2c(sc3ncnc(N/N=C/c4ccc(Cl)cc4Cl)c23)C1 shows growth at minimum 60%?
Result: NOT MET

Ask: Would you say Cc1ccc(NCC(=O)Cn2cc(COc3ccc(C=Nc4cnc5ccccc5c4)cc3)nn2)cc1 shows growth at minimum 60%?
Result: MET

Ask: Would you say COc1ccc(C(=O)/C=C/c2c(F)cccc2Cl)cc1S(N)(=O)=O shows growth at minimum 60%?
Result: NOT MET

Ask: Would you say Cc1cccc(-c2nc(Nc3cccc(S(N)(=O)=O)c3)c3ccccc3n2)c1 shows growth at minimum 60%?
Result: NOT MET

Ask: Would you say COc1ccc2[nH]cc(-c3cc(N)n4nc(-c5cn(C)c6ccccc56)cc4n3)c2c1 shows growth at minimum 60%?
Result: NOT MET

Ask: Would you say O=C1/C(=C/C2=Cc3ccccc3OC2)SC(=S)N1c1ccccc1F shows growth at minimum 60%?
Result: MET

Ask: Would you say COc1cc(C2CC(c3cc(OC)c(OC)c(OC)c3)=Nc3c(N)nc(N)nc3N2)ccc1Oc1nc(NCCO)nc(N2CCOCC2)n1 (centres undefined) shows growth at minimum 60%?
Result: MET

Ask: Would you say COc1ccc(C(=O)/C=C/c2cccc3ccccc23)cc1S(N)(=O)=O shows growth at minimum 60%?
Result: NOT MET

----------
System: CAKI-1 renal
Assay: NCI-60 one-dose screen, 48 h (100 = growth as untreated, 0 = no growth, -100 = all killed)
Conditions: 10 µM unless noted
Experimental: Growth inhibition of the CAKI-1 human tumor cell line is measured as a screen for anti-cancer activity. Cells are grown in 96 well plates and exposed to the test compound for 48 hours. Compounds are tested at a single concentration, which is 10^-5 M for most compounds. The reported endpoint is percent growth (GI% or GIPRCNT), where numbers from 0 - 100% represent growth inhibition, and numbers from -100% - 0 represent cell death. For example, a value of 40 represents 60% growth inhibition. […]
Compounds without any hit were thinned out: in the full panel of roughly 83,000, 20% have a hit.
Label true for high-side growth (at or above 40%) and false for low-side growth (below it).

Use the examples below as a reference point.
COc1ccc(C2=NN(C(C)=O)C(c3ccc(OCc4ccc(Cl)cc4)c(OC)c3)C2)cc1OC (stereo not drawn) ... true
COc1ccc2oc3c4[nH]c5ccccc5c4c4c(c3c2c1)C(=O)N(C(=O)OC(C)(C)C)C4=O ... false
CC12CC[C@@H]3[C@]4(C)COC(c5cn[nH]c5-c5ccc(Br)cc5)O[C@@H]4CC[C@@]3(C)[C@@H]1CC(C1=CCOC1=O)O2 (stereo partly drawn) ... true
C/C(=N\Nc1ccc(S(N)(=O)=O)cc1)c1ccc(N=Nc2c(Nc3ccccc3)[nH][nH]c2=O)cc1 ... true
CN(C)CCCNC(=O)c1cc(NC(=O)c2cc(NC(=O)c3ccc(C#Cc4ccccc4)cc3)cn2C)cn1C ... false

Now consider the entry below.
Ask: Would you say CCOC(=O)c1ccc(Nc2nc(NN)nc(-c3ccc(OC)cc3)c2C#N)cc1 shows growth at minimum 40%?
Result: true

----------
tested on: MALME-3M melanoma; experiment: NCI-60 one-dose screen, 48 h; settings: 10 µM unless noted
Compounds without any hit were thinned out: in the full panel of roughly 83,000, 20% have a hit. The source made the active and inactive calls. Rule for the calls: active = growth percent below 10; inactive = the rest.
# output must be one of active, inactive

Use the examples below as a reference point.
Cc1ccc(-c2nc(C#N)c(S(=O)(=O)N3CCN(S(=O)(=O)c4ccc(Cl)cc4)CC3)o2)cc1 ... inactive
CC12CC[C@@H]3[C@]4(C)COC(c5c(F)cccc5F)O[C@@H]4CC[C@@]3(C)[C@@H]1CC(C1=CCOC1=O)O2 (stereo partly drawn) ... inactive

Ask: Outcome? O=C(c1ccc(OCCN2CCOCC2)cc1)C1[C@H](c2ccc(Cl)cc2)[C@@H](c2ccccc2)NC12C(=O)Nc1ccc(Cl)cc12 (stereo partly drawn)
Result: inactive

Ask: Outcome? COc1ccc(-c2nc3cc(C)ccc3n2CC(=O)N=Nc2c(O)[nH]c3ccc(OC)cc23)cc1
Result: active

----------
system: IGROV1 ovarian; assay: NCI-60 one-dose screen, 48 h; settings: 10 µM unless noted
Compounds without any hit were thinned out: in the full panel of roughly 83,000, 20% have a hit. Activity calls are given as the source filed them. How the source made its calls: active means growth percent below 10; inactive means the rest.
# output must be one of active, inactive

Use the examples below as a reference point.
N#Cc1c(-c2ccc(Cl)cc2)nc2n[nH]c(-c3ccc(Cl)cc3)c2c1-c1cccs1 ... inactive
O=C(NNc1nc2cc(F)ccc2n2c(CN3CCCCC3)ccc12)c1cnccn1 ... active
Cc1ccc([C@H]2C(C(=O)c3ccc(Cl)cc3)C3(N[C@@H]2c2ccccc2)C(=O)Nc2ccc(Cl)cc23)cc1 (stereo partly drawn) ... inactive

Ask: Outcome? Cc1ccc(NC(=O)CN2CCN(c3ncnc4c3cnn4-c3ccccc3)CC2)cc1
Result: inactive

Ask: Outcome? CN1C(=O)/C(=C/c2ccc(C(=O)Nc3ncc(Cc4ccc(Cl)cc4Cl)s3)cc2)SC1=S
Result: inactive

Ask: Outcome? CN1CCN(Cc2ccc(C(=O)Nc3cccc(C#Cc4cccc5[nH]nc(N)c45)c3)cc2C(F)(F)F)CC1
Result: active

Ask: Outcome? O=C(Cn1c2c(sc1=O)[C@H]1[C@@H](O)[C@@H](O)[C@H](O)[C@@H]1CS2)N1CCOCC1
Result: inactive

----------
Measured growth, listed per entry for reference.
system: OVCAR-3 ovarian; assay: NCI-60 one-dose screen, 48 h (100 = growth as untreated, 0 = no growth, -100 = all killed); conditions: 10 µM unless noted
This is part of a sample that, as a whole, favours compounds with a hit. Of some 83,000 tested, about 20% had one in any assay.
Value expressed in %; do not type the unit.

Some compounds with known growth results, for comparison:
COCOc1ccc2c(=O)c(C)c(C(=O)N[C@@H](Cc3ccccc3)C(O)C(=O)NCCc3ccc(OC)cc3)oc2c1 (stereo partly drawn) ... 120
Cn1cc(-c2cc(N)n3nc(-c4cn(C)c5ccc(Cl)cc45)cc3n2)c2ccccc21 ... 122
Cc1ccc(S(=O)(=O)c2nc(S(=O)(=O)c3ccc(C)cc3)c(N3CCN(C)CC3)s2)cc1 ... 46.1
O=C(N/N=C/c1ccc(-c2ccc(O)cc2)o1)c1[nH]c2ccc(Br)cc2c1-c1ccccc1 ... -41.1
COc1ccc2c(c1)c(-c1cc(N)n3nc(-c4cn(C)c5ccccc45)cc3n1)cn2C ... -67.4
O=C(CCN1C(=O)/C(=C/c2ccc(F)cc2)SC1=S)N1CCOCC1 ... 78.7
CC1(C)CC[C@]2(C(=O)O)CC[C@]3(C)C(=CCC4[C@@]5(C)C[C@@H](O)[C@@H]6OC(c7ccc(F)cc7)OC[C@@]6(C)C5CC[C@]43C)C2C1 (stereo partly drawn) ... 24

Ask: Data request, read-out growth, for COc1ccc2[nH]c(O)c(N=NC(=O)COc3ccc(NC(=O)Nc4ccccc4)cc3)c2c1
Result: 65.5
